# Test system: VSV*ΔG(Luc)-S virus (SARS-CoV-2 spike, D614G)
# MEASUREMENT CONTEXT: read-out: EC50 HLT
# EC50 annotations
MEASUREMENT TYPE: EC50 (µM)

[H]/N=C(/N)N/C(=N/[H])NCCc1ccccc1 [Phenformin]: 38.2
O=C1C[C@@H](c2ccc(O)c(O)c2)Oc2cc(O)cc(O)c21 [Eriodictyol]: 90
CC1(C)Cc2c(-c3ccccc3)c(-c3ccc(Cl)cc3)c(CC(=O)O)n2C1 [Licofelone]: 32.2
Cc1cc(O)c2c(=O)c3c(O)cc(O)c4c5c(O)cc(O)c6c(=O)c7c(O)cc(C)c8c1c2c(c34)c(c78)c65 [Hypericin]: 0.31
CC(C)C(=O)OCC(=O)[C@@]12O[C@H](C3CCCCC3)O[C@@H]1C[C@H]1[C@@H]3CCC4=CC(=O)C=C[C@]4(C)[C@H]3[C@@H](O)C[C@@]12C [Ciclesonide]: 16.4
Nc1ncnc2c1ncn2[C@@H]1O[C@H](CO)[C@@H](O)[C@@H]1O [Vidarabine]: 51.6
Cc1ccc(-c2cc(C(F)(F)F)nn2-c2ccc(S(N)(=O)=O)cc2)cc1 [Celecoxib]: 55.7

Reference source for all entries: paper PMC8791477
